Test: Intrinsic clearance in human liver microsomes
Type: ADME, Microsome
Here the recorded log10 of microsomal CLint is given for each entry.
Values below are the log10 of the recorded microsomal CLint, with µL/min/mg as the unit.

**Q:** Reported log10 of microsomal CLint, molecule CC(C)N1CCC(Oc2cc3cc4n(c3cc2Br)[C@@H](C)CN(CC2CC2)C4=O)CC1 : ____
**A:** 0.85

----------
Here the recorded inhibition is given for each entry.
Biological target: UniProt:P25021
Sequence (P25021 whole entry): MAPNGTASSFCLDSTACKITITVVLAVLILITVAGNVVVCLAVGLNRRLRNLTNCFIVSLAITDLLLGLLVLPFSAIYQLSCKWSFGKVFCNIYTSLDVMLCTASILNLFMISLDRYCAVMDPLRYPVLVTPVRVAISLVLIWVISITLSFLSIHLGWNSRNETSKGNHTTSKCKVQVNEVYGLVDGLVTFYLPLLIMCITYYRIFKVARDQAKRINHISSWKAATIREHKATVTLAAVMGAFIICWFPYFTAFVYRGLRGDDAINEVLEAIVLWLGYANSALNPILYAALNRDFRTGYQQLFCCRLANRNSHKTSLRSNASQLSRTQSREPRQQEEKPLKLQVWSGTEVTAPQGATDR
Experiment: Displacement of [3H]-tiotidine from human histamine H2 receptor
Design: concentration or dose not given beside the values
Details: concentration not given here
Units required after the number.

// solved cases for inhibition follow
CC(C)N1CCC(Oc2ccc3c(c2)cc2n3C[C@H](C)NC2=O)CC1	26%
CC(C)N1CCC(Oc2ccc3c(c2)cc2n3CCN(Cc3ccccn3)C2=O)CC1	4%
C[C@@H]1CCCN1CCCOc1ccc2c(c1)cc1n2CCNC1=O	4%

**Q:** Reported inhibition, compound CC(C)N1CCC(Oc2ccc3c(c2)cc2n3[C@@H](C)CNC2=O)CC1 : ____
**A:** 9%

**Q:** Reported inhibition, compound CC(C)N1CCC(Oc2ccc3c(c2)cc2n3CCN(C)C2=O)CC1 : ____
**A:** 11%

**Q:** Reported inhibition, compound CC(C)N1CCC(Oc2ccc3c(c2)cc2n3CCN(Cc3ccc(F)cc3)C2=O)CC1 : ____
**A:** -3%
